biological target: Human recombinant MMP-14 (Homo sapiens, UniProt P50281); construct: The catalytic domain enzyme was expressed in E. coli inclusion bodies, solubilized in urea; made in house; assay: In vitro MMP inhibition analysis (fluorogenic peptide substrate cleavage), Ki; format: biochemical; settings: Table 1
pKi: −log10 of the molar value.
Collected pKi values appear next to each entry.
Endpoint: pKi

CCN1CCC(C(=O)NO)(S(=O)(=O)c2ccc(-c3cnc(CCC(C)(F)F)cn3)cc2)CC1 : < 5.00
O=C(NO)C1(S(=O)(=O)c2ccc(-c3cnc(CCCC(F)(F)F)cn3)cc2)CCOCC1 : < 5.00
COCCN1CCC(C(=O)NO)(S(=O)(=O)c2ccc(-c3cnc(CCC(C)(F)F)cn3)cc2)CC1 : 5.22
